Recorded values, source patent US20090172831A1.

Target: Arabidopsis HPPD (Arabidopsis thaliana)
Construct: made in house; host or cells: E. coli BL21 (DE3) codon+ RP
Sequence (P93836 whole entry): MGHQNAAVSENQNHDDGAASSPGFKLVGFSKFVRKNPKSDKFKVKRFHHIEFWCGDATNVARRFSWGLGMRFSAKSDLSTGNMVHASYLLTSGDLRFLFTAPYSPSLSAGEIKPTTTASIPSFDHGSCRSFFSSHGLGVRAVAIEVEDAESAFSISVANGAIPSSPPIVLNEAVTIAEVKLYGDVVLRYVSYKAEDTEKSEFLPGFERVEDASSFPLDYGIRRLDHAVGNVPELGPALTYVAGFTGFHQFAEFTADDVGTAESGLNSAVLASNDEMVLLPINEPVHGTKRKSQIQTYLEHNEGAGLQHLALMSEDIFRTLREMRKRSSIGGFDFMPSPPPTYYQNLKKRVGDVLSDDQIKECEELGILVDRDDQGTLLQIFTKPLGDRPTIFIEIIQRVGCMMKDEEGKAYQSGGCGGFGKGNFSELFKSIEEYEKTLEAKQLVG
Assay: Dissociation of enzyme/inhibitor complexes by exchange with 14C-labelled inhibitor (koff; Kd = koff/kon)
Assay type: binding
Listed here are compounds together with their documented Kd.
READOUT_KIND: Kd (nM)

                                   compound  meas_value
0  Cc1nc(C(F)(F)F)ccc1C(=O)C1C(=O)C(C)(C)C(=O)C(C)(C)C1=O [Structure VII]       0.032
1  CC1(C)C(=O)C(C(=O)c2ccc(Cl)cc2[N+](=O)[O-])C(=O)C(C)(C)C1=O [Structure V]       0.004
2  Cc1cc(C#N)ccc1C(=O)C1C(=O)C(C)(C)C(=O)C(C)(C)C1=O [Structure VI]       0.025
3  Cc1nc(C(F)(F)F)ccc1C(=O)C1C(=O)C2CCC(C2)C1=O (stereo not shown) [Structure II]        0.11
